- system_name: Ribosyldihydronicotinamide dehydrogenase [quinone] (Homo sapiens, UniProt P16083); further: in the data inactive means no Kd found up to 30 µM
- Sequence (P16083 whole entry): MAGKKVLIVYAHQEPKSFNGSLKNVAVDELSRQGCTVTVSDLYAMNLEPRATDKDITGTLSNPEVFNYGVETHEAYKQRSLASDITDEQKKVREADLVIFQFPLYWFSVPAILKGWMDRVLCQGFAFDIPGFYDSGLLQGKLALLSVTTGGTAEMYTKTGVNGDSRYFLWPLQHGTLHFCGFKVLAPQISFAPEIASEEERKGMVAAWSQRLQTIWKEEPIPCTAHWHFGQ
Activity calls are given as the source filed them.
Outcome field: choose from YES = active, NO = inactive

Worked examples follow.
>  <compound>
COCc1c(-c2ccc(NC(=O)Nc3cc(C(F)(F)F)ccc3F)c(F)c2)c2c(N)ncnn2c1CN1CCOCC1

>  <class_label>
NO

$$$$
>  <compound>
C=CC(=O)Nc1cc2c(Nc3ccc(F)c(Cl)c3)ncnc2cc1C#CC(C)(C)N1CCN(C)CC1 [AV-412 FREE BASE]

>  <class_label>
NO

$$$$
>  <compound>
NC(=O)c1c(OCc2c(F)cc(Br)cc2F)nsc1NC(=O)NCCCCN1CCCC1

>  <class_label>
NO

$$$$

Request: What was the test verdict on `Cn1cc(-c2cnc3ccc4ccc(CS(=O)(=O)NCc5ccccn5)cc4c(=O)c3c2)cn1` ?
Response: NO

Request: Then this compound: `Cc1csc(-c2nnc(Nc3ccc(Oc4ncccc4-c4ccnc(N)n4)cc3)c3ccccc23)c1`
Response: YES

Request: Then this compound: `CNC(=O)c1cccc2cc(Oc3ccnc4cc(OCC5(N)CC5)c(OC)cc34)ccc12`
Response: NO

Request: Then this compound: `O=C(Nc1cc(C(F)(F)F)cc(C(F)(F)F)c1)c1cc(Cl)ccc1O`
Response: NO

Request: Then this compound: `CN(C[C@@H]1COCCO1)S(=O)(=O)Nc1ccc2ccc3ncc(-c4cnn(C)c4)cc3c(=O)c2c1`
Response: YES
